melting point by entry:

Worked cases, answers included:
1. Cc1cc(C(=O)O)cc2c1[nH]c1ccccc12 | > 240 °C
2. Cc1cc(C)cc(NC(=O)Cc2ccc(OC(C)C(=O)O)cc2)c1 (stereo not given) | 183 to 187 °C

Q: Consider the molecule CN=C(Nc1cc(Cl)cc(Cl)c1)N1CCN(c2ccc(OC(C)=O)cc2OC)CC1 and give its recorded melting point.
A: 144 °C

Q: Consider the molecule CCCC(O)c1ccc(Cl)c2nc3n(c12)CCCN3c1ccc(Cl)cc1Cl (stereo not given) and give its recorded melting point.
A: 220 to 221 °C

Q: Consider the molecule COc1ccc(-c2nc(C(=O)O)c[nH]2)cc1OC1CCCC1 and give its recorded melting point.
A: 206 to 208 °C

###

recorded-endpoint: melting point (°C)
Provide the reading as a plain figure in °C.

Q: Consider the compound CN(C(=O)c1ccccc1NC(=O)N[C@@H](Cc1ccc(NC(=O)c2c(Cl)cccc2Cl)cc1)C(=O)O)c1ccccc1 and give its recorded melting point.
A: 178

Q: Consider the compound CCCC(CCC)N1Cc2c(C(=O)OC)cc(NS(C)(=O)=O)cc2C1=O and give its recorded melting point.
A: 173

###

melting point by entry:

Q: Consider the compound COc1ccc(N(C(=O)CN2C(=O)C(Cc3nn(Cc4ccccc4)c4ccccc34)(OC)C(=O)N(c3cccnc3)c3ccccc32)C(C)C)cc1 (stereo not given) and give its recorded melting point.
A: 223 to 224 °C

###

melting point by entry:

Worked cases, answers included:
1) CC1=C(C(=O)Nc2cccc(C(=O)OC(C)C)c2)SCCO1 | 92 to 94 °C
2) C=CCSC1=C(C(=O)OCc2ccc([N+](=O)[O-])cc2)N2C(=O)[C@@H]([C@H](C)O)[C@H]2C1 | 137 to 139 °C
3) C#CCCc1c(C)c(OC)c(C)c(C)c1OC | 54 °C
4) COc1ccc(C2c3cccc(O)c3C(=O)c3c(O)cccc32)c(OC)c1 | 152 °C
5) COc1cc2nc(N3CCC(=O)CC3)nc(N)c2cc1OC | 228 to 230 °C
6) N#CCCNC(=O)c1n[nH]cc1NC(=O)c1cccc(C#N)c1 | 248 to 249 °C
7) Cc1cc(C)cc(C(=O)N2CCN(C(=O)CNC3CCN(C(=O)c4ccccc4)CC3)C(c3ccc(Cl)c(Cl)c3)C2)c1 (racemic) | 94 to 96 °C
8) CC(=O)Nc1nc(O)c2cc(I)cnc2n1 | > 280 °C
9) Nc1c(Cl)cc(C(O)CNCCCCCC(=O)OCCc2ccsc2)cc1Cl (stereo unspecified) | 71 to 73 °C
10) CC(=O)Oc1ccc(-n2c(-c3ccccc3)cc3ccccc32)cc1C(=O)O | 178 to 180 °C

Q: Consider the molecule CCOP(=O)(CCCCC1(C(=O)NCC(F)(F)F)c2ccccc2-c2ccccc21)OCC and give its recorded melting point.
A: 87 to 89 °C

Q: Consider the molecule Cn1c(C(F)(F)F)nnc1S(C)(=O)=O and give its recorded melting point.
A: 96 °C

Q: Consider the molecule CCCCCCCCCCCCCCC(F)(F)P(=O)(O)O and give its recorded melting point.
A: 66 to 69 °C

###

melting point by entry:

Worked cases, answers included:
1) CCCCCCCCCCCCCCOc1ccc(C(=O)OC)cc1C(C)(C)C | 44 to 45 °C
2) CN(C)c1c(C(=O)c2ccccc2)[nH]c2cc(Cl)ccc12 | 178 to 180 °C
3) NC(=S)Cn1c(=O)sc2ccccc21 | 205 to 207 °C

Q: Consider the compound CC(C)(C)c1ccc(C(CO)NC(=O)c2c(F)c(F)cc(F)c2F)cc1 (stereo not given) and give its recorded melting point.
A: 158 to 160 °C

Q: Consider the compound CN(C)Nc1c(-c2c(F)cc(F)cc2F)c(Cl)nc2ncnn12 and give its recorded melting point.
A: 165 to 168 °C

Q: Consider the compound CCOC(=O)C(=CNN(C)C=O)C(=O)c1cc(F)c(F)c(F)c1F and give its recorded melting point.
A: 189 °C

Q: Consider the compound O=C(O)Cc1nc(-c2c(Cl)cccc2Cl)no1 and give its recorded melting point.
A: 124 to 126 °C

Q: Consider the compound CCCCCCCCCCCCNC(=O)c1cc(-c2cc(Cl)cc(Cl)c2)c(OCC(=O)O)c(-c2cc(Cl)cc(Cl)c2)c1 and give its recorded melting point.
A: 139 to 144 °C

Q: Consider the compound CCS(=O)(=O)Nc1ccc(F)c([N+](=O)[O-])c1 and give its recorded melting point.
A: 133 to 136 °C

Q: Consider the compound Cc1cc(O)c(S(=O)(=O)C(C)(C)C)c(=O)o1 and give its recorded melting point.
A: 119 to 120 °C

Q: Consider the compound CC(O)C1(C)COC(c2ccc(F)cc2)OC1 (stereo not given) and give its recorded melting point.
A: 78 °C
